# System: HOP-62 NSCLC
# assay details: NCI tumour cell line growth inhibition, 48 h
Where a SMILES comes first, the peptide text is derived from it.

compound	TGI
C/C(=N\Nc1nc2ccccc2o1)c1ccc2ccccc2n1	58.7 µM
O=S(=O)(Nc1nccs1)c1ccc(Nc2nc(-c3cccs3)nc3ccc(I)cc23)cc1	51.1 µM
CN(C)CCNc1ccc2nnn3c4ccc(O)cc4c(=O)c1c23	17.2 µM
CCOC(=O)c1ccc(N=Cc2ccc(N(CCC#N)CCC#N)cc2)cc1	> 100 µM
COC(=O)Nc1nc2ccc(NS(=O)(=O)c3ccc(Cl)cc3)cc2[nH]1	31.5 µM
C[C@]12CCC(=O)C(O)=C1CCC2=O	> 100 µM
COc1ccc(C2=Cc3nc2c(-c2ccccc2)c2ccc([nH]2)c(-c2ccccc2)c2nc(c(-c4ccccc4)c4ccc([nH]4)c3-c3ccccc3)C=C2)cc1	> 100 µM
CC(C)C(=O)NCC[C@@H](CNC(=O)OC(C)(C)C)NC(=O)OC(C)(C)C	> 100 µM
COC(=O)N[C@H]1C=C[C@@H]2/C=C(C)/C=C/[C@@H](C)[C@H]([C@H](C)[C@H](O)[C@@H](C)NC(C)=O)OC(=O)/C=C/C=C(C)\C=C\[C@]2(C)C1	> 45.3 µM
COc1ccc(CNc2nc3ccccc3nc2C(=O)O)cc1OC	> 100 µM
CN(C)[C@@H]1C(=O)C(C(=O)NCN2CCN(C(=N)N=C(N)N)CC2)=C(O)[C@@]2(O)C(=O)C3=C(O)c4c(O)cccc4[C@@](C)(O)[C@H]3C[C@@H]12	3.99 µM
CC(C)(C(=O)NCC(F)(F)C(F)(F)F)C(=O)N[C@@H]1C(=O)Nc2ccccc2-c2ccccc21	> 100 µM
COc1ccc2c(c1OC)C(=O)OC2C1c2c(c(N)c3c(c2OC)OCO3)CCN1C (stereo unspecified)	> 100 µM
CCC(C)C1NC(=O)C(CCCCN)NC(=O)C(CCCCN)NC(=O)C(CC(C)C)NC(=O)C(CCCCN)NC(=O)C(C(C)CC)NC(=O)C(C(C)C)NC(=O)C(C(C)CC)NC(=O)C(CCCCN)NC(=O)C(CCCCN)NC(=O)C(C)NC(=O)C(CCCCN)NC(=O)C(CC(C)C)NC1=O (stereo unspecified) (cyclo(AKKIVIKLKKILK); configuration not given here)	3.97 µM
O=S(=O)(Nc1cc(F)cc(F)c1)c1ccc(-c2cnc(C3CC3)o2)cc1	33.6 µM
CN1CCN(Cc2nc3cccc4c3c([n+]2[O-])-c2ccccc2-4)CC1	> 100 µM
Cc1ccc(S(=O)(=O)C2=C([Si](C)(C)C)C3CC2[C@@H]2C4C=CC(CC4)[C@H]32)cc1 (stereo partly specified)	> 100 µM
COc1ccc(/C=C/C(=O)Nc2cc(/C=C\c3cc(OC)c(OC)c(OC)c3)cc(OC)c2OC)cc1OC	> 100 µM
CCOP(=O)(OCC)C(C)(CC)NC1=NC(C(F)(F)F)(C(F)(F)F)NC(=O)N1 (stereo unspecified)	> 100 µM
O=C(OCc1ccccc1)c1nc2ccccc2n1S(=O)(=O)c1ccccc1	> 100 µM
CC(=O)Nc1ccc(C(=O)NN2C(=O)C(Cl)C2c2cc(Br)cc(Br)c2O)cc1 (stereo unspecified)	> 100 µM
CCOC(=O)c1cc2c([nH]1)c(OC(C)=O)cc1c2ccn1Cc1ccccc1	> 100 µM
CCOC(=O)c1cc(C(=O)c2cc(OC)c(OC)c(OC)c2)n2nc(C)ccc12	> 100 µM
COC(=O)C(/C(=N/NC(N)=O)C(=O)Nc1c(C)cccc1C(C)(C)C)c1nc2ccc(Cl)cc2[nH]c1=O (stereo unspecified)	> 100 µM
Nc1nc2c3c(ncn3CC(O)CO2)n1 (stereo unspecified)	> 100 µM
N/N=c1\c2ccccc2c2ccc3c4ccccc4/c(=N\N)c3c12	> 100 µM
Cn1cc(NC(=O)c2cc(NC(=O)CCCCCCCCCC(=O)Nc3cc(C(=O)Nc4cc(C(=O)NCCC(=N)N)n(C)c4)n(C)c3)cn2C)cc1C(=O)NCCC(=N)N	81.3 µM
Fc1ccc(-c2ncn(C3CCNCC3)c2-c2ccnc(Oc3cccc(C(F)(F)F)c3)n2)cc1	7.47 µM
S=C1Nc2cnc3ccccc3c2SC1c1ccccc1 (stereo unspecified)	> 100 µM
[N-]=[N+]=Nc1ncnc2c1sc(=S)n2-c1ccccc1	52.7 µM
Cc1cccc(-n2cnc3cc(C(=O)N4CCCCC4)ccc32)c1	> 100 µM
CCCCCN1C(=O)/C(=c2\sc3n(c2=O)C2C(NN=3)N(CC)C(=O)N2CC)c2ccccc21 (stereo unspecified)	3.83 µM
CC(CO)CCNc1ncnc2c1ncn2CCC(=O)O (stereo unspecified)	> 100 µM
CCN(CC)c1ccc2cc(-c3nc4ccccc4n3C)c(=O)oc2c1	29.8 µM
CCCCCCC(O)(c1ccc(F)cc1)C(CN1CCOCC1)c1ccccc1 (stereo unspecified)	35.3 µM
COc1cc(-c2cc(-c3nc4ccc(F)cc4[nH]3)[nH]n2)cc(OC)c1OC	8.05 µM
